# study_system: Androgen receptor (Homo sapiens)
# measurement_description: qHTS assay to identify small molecule antagonists of the androgen receptor (AR) signaling pathway using the MDA cell line (AID 743042; also: nearly all actives have a fitted effect of over 55% in size)
# conditions: MDA-kb2 AR-luc, MMTV luciferase, R1881 antagonist, 16 h; series mostly up to 70.3 µM
Inconclusive results are not listed. Activity calls are given as the source filed them. Calls follow the shape of the dose curve; as a rule, active = well fitted inhibition curve with a large enough effect in the repeat runs; inconclusive = weak or mixed curves, or effect the other way; inactive = no such curve, though single readings can be large or run the other way.
Labels: 1 (yes) = active, 0 (no) = inactive

{"molecule": "CC(=O)O[C@H]1CC[C@@]2(C)C(=CC[C@@H]3[C@@H]2CC[C@]2(C)C(=O)CC[C@@H]32)C1", "label_class": "0 (no)"}
{"molecule": "O=C(CCl)Nc1ccccc1", "label_class": "1 (yes)"}
{"molecule": "Oc1c(Br)c(Br)c(Br)c(Br)c1Br", "label_class": "0 (no)"}
{"molecule": "O=C(NC(=O)c1c(F)cccc1F)Nc1cc(Cl)c(OC(F)(F)C(F)F)c(Cl)c1", "label_class": "0 (no)"}
{"molecule": "N#CCCSCCC#N", "label_class": "0 (no)"}
{"molecule": "Cc1cc(N=Nc2ccccc2C)ccc1N", "label_class": "0 (no)"}
{"molecule": "O=c1oc2ccccc2c(O)c1Cc1c(O)c2ccccc2oc1=O", "label_class": "0 (no)"}
{"molecule": "CN(C)CCc1c[nH]c2ccc(O)cc12", "label_class": "0 (no)"}
{"molecule": "[CH3][Hg][Cl]", "label_class": "0 (no)"}
{"molecule": "C[C@]12Cc3nonc3C[C@@H]1CC[C@@H]1[C@@H]2CC[C@@]2(C)[C@H]1CC[C@]2(C)O", "label_class": "1 (yes)"}
{"molecule": "CCCCCCCCCCCCCCCCCCn1cc[n+](C)c1", "label_class": "1 (yes)"}
{"molecule": "Cc1ccc(OP(=O)(Oc2ccccc2)Oc2ccccc2)cc1", "label_class": "0 (no)"}
{"molecule": "CC(=O)C(Cl)(Cl)Cl", "label_class": "1 (yes)"}
{"molecule": "O=[N+]([O-])c1ccc2ccc3cccc4ccc1c2c34", "label_class": "0 (no)"}
{"molecule": "FC(Cl)(Cl)Cl", "label_class": "0 (no)"}
{"molecule": "C[C@@H]1CC[C@@]2(OC1)O[C@H]1[C@@H](O)[C@H]3[C@@H]4CC[C@H]5C[C@@H](O[C@@H]6O[C@H](CO)[C@H](O[C@@H]7O[C@H](CO)[C@@H](O)[C@H](O[C@@H]8OC[C@@H](O)[C@H](O)[C@H]8O)[C@H]7O[C@@H]7O[C@H](CO)[C@@H](O)[C@H](O[C@@H]8O[C@H](CO)[C@@H](O)[C@H](O)[C@H]8O)[C@H]7O)[C@H](O)[C@H]6O)[C@H](O)C[C@]5(C)[C@H]4CC[C@]3(C)[C@H]1[C@@H]2C", "label_class": "1 (yes)"}
{"molecule": "O=C1c2ccccc2C(=O)C1C(=O)C(c1ccccc1)c1ccc(Cl)cc1 (stereo not given)", "label_class": "1 (yes)"}
{"molecule": "CCCCOCN(C(=O)CCl)c1c(CC)cccc1CC", "label_class": "1 (yes)"}
{"molecule": "COP(=O)(OC)SCn1c(=O)oc2cc(Cl)cnc21", "label_class": "1 (yes)"}
{"molecule": "CCC(C)(C)C(=O)OC1=C(c2ccc(Cl)cc2Cl)C(=O)OC12CCCCC2", "label_class": "0 (no)"}

Hey, just so you know, these numbers are from PubChem BioAssay (Tox21).
